Values compiled from paper PMC10079573.

protocol_details: in vitro
Type: in vitro ADME
protocol_conditions: human, pH 7.4
Experimental: The objective of this study was to evaluate protein binding test compounds in human and mice plasma. This was accomplished by spiking the test compounds at a concentration of 5 µM into human and mice plasma and dialyzing against buffer until equilibrium is achieved (4 hours). Analyte area ratios of the test compounds in plasma and buffer were determined to calculate unbound and bound percentages of compound to the plasma proteins. Compound concentration : 5 µM […]
assay_endpoint: recovery at 4 h, 5 µM (%)
Reply with just the number (in %).

I'd like to know its recovery at 4 h, 5 µM. The compound in question is CC(=O)CC(c1ccccc1)c1c(O)c2ccccc2oc1=O (stereo not shown)
97
